Test system: Human Platelets
experiment_summary: Total cGMP in human platelets
Type: cell-based
test_conditions: 1 μM riociguat and 100 nM BAY 190954, incubation 2 h
# Lookup of reported Ratio Maximum cGMP increase vs Baseline keyed by entry
Answer as a number with no unit attached.

Some entries whose results are on file:
{"molecule": "CCCc1nc(C)c2c(=O)[nH]c(-c3cc(S(=O)(=O)N4CCC(C(O)(CCO[N+](=O)[O-])CCO[N+](=O)[O-])CC4)ccc3OCC)nn12 [Compound 2h]", "system_under_test": "Human Platelets", "Ratio Maximum cGMP increase vs Baseline": 171.3}
{"molecule": "CCCc1nc(C)c2c(=O)[nH]c(-c3cc(S(=O)(=O)N4CCC(C(O)C(CO[N+](=O)[O-])CO[N+](=O)[O-])CC4)ccc3OCC)nn12 (stereo not drawn) [Compound 2i]", "system_under_test": "Human Platelets", "Ratio Maximum cGMP increase vs Baseline": 932.9}

Turning to the following molecule.
Task: Retrieve Ratio Maximum cGMP increase vs Baseline measured for CCCc1nc(C)c2c(=O)[nH]c(-c3cc(S(=O)(=O)N4CCC(C(O)(CCO)CCO[N+](=O)[O-])CC4)ccc3OCC)nn12 (stereo not drawn) [Compound 2g] and print it.
Output: 183.5

====

experiment_summary: Human plasma protein binding
Assay type: in vitro ADME
test_conditions: human, read-out: % Unbound in human plasma
# Lookup of reported fraction unbound keyed by entry
Answer as a number with no unit attached.

Some entries whose results are on file:
{"molecule": "CCCc1nc(C)c2c(=O)[nH]c(-c3cc(S(=O)(=O)N4CCC(CC(CO)CO[N+](=O)[O-])CC4)ccc3OCC)nn12 (stereo not drawn)", "fraction unbound": 0.0052}
{"molecule": "CCCc1nc(C)c2c(=O)[nH]c(-c3cc(S(=O)(=O)N4CCC(C(O)(CCO)CCO[N+](=O)[O-])CC4)ccc3OCC)nn12 (stereo not drawn)", "fraction unbound": 0.0171}
{"molecule": "CCCc1nn(C)c2c(=O)[nH]c(-c3cc(S(=O)(=O)N4CCN(C)CC4)ccc3OCC)nc12 [Sildenafil, reference compound]", "fraction unbound": 0.0419}

Task: Retrieve fraction unbound measured for CCCc1nn(C)c2c(=O)[nH]c(-c3cc(S(=O)(=O)N4CCC([C@@H](O)CO[N+](=O)[O-])CC4)ccc3OCC)nc12 and print it.
Output: 0.0118

Task: Retrieve fraction unbound measured for CCCc1nn(C)c2c(=O)[nH]c(-c3cc(S(=O)(=O)N4CCC(C(O)C(CO[N+](=O)[O-])CO[N+](=O)[O-])CC4)ccc3OCC)nc12 (racemic) and print it.
Output: 0.0015

Task: Retrieve fraction unbound measured for CCCc1nc(C)c2c(=O)[nH]c(-c3cc(S(=O)(=O)N4CCC(CC(CO[N+](=O)[O-])CO[N+](=O)[O-])CC4)ccc3OCC)nn12 and print it.
Output: 0.0008

====

system_under_test: recombinant human (rh) PDE5A (Homo sapiens, UniProt O76074)
Construct: GST
experiment_summary: Phosphodiesterase-5 activity assay (radiometric SPA)
test_conditions: rhPDE5A1, 0.5 μM cGMP, 20 min at 37° C.
pIC50: −log10 of the molar value.
Returns yes (1) if the recorded pIC50 is greater than or equal to 9, and no (0) otherwise.

Worked examples, 3 compounds total:
{"compound": "CCCc1nc(C)c2c(=O)[nH]c(-c3cc(S(=O)(=O)N4CCC(CC(CO)CO)CC4)ccc3OCC)nn12", "system_under_test": "recombinant human (rh) PDE5A (Homo sapiens, UniProt O76074)", "discrete_label": "yes (1)"}
{"compound": "CCCc1nn(C)c2c(=O)[nH]c(-c3cc(S(=O)(=O)N4CCC(C(O)C(CO[N+](=O)[O-])CO[N+](=O)[O-])CC4)ccc3OCC)nc12 (racemic)", "system_under_test": "recombinant human (rh) PDE5A (Homo sapiens, UniProt O76074)", "discrete_label": "no (0)"}
{"compound": "CCCc1nc(C)c2c(=O)[nH]c(-c3cc(S(=O)(=O)N4CCC(C(O)C(CO)CO)CC4)ccc3OCC)nn12 (stereo not drawn)", "system_under_test": "recombinant human (rh) PDE5A (Homo sapiens, UniProt O76074)", "discrete_label": "yes (1)"}

Please examine the following record next.
Task: Is it the case that CCCc1nc(C)c2c(=O)[nH]c(-c3cc(S(=O)(=O)N4CCC(C(O)CCO)CC4)ccc3OCC)nn12 (racemic) has pIC50 reaching or exceeding 9?
Output: yes (1)

====

Test system: Human Trabecular Meshwork Cells
experiment_summary: Cellular cGMP assay in human trabecular meshwork cells
Type: cell-based
test_conditions: 3-fold increase (values without asterisk); HTMC, 10 μM Riociguat
measured_quantity: Concentration (nM) for 3-fold or 2-fold* cGMP increase vs Baseline
Express the result in nM but write the number alone.

Some entries whose results are on file:
{"molecule": "CCCc1nc(C)c2c(=O)[nH]c(-c3cc(S(=O)(=O)N4CCC([C@@H](O)CO[N+](=O)[O-])CC4)ccc3OCC)nn12 [Compound 2c]", "recorded_result": 10.1}
{"molecule": "CCCc1nn(C)c2c(=O)[nH]c(-c3cc(S(=O)(=O)N4CCC([C@H](CO[N+](=O)[O-])O[N+](=O)[O-])CC4)ccc3OCC)nc12 [Compound 1a]", "recorded_result": 26.7}
{"molecule": "CCCc1nn(C)c2c(=O)[nH]c(-c3cc(S(=O)(=O)N4CCC([C@@H](O)CO[N+](=O)[O-])CC4)ccc3OCC)nc12 [Compound 1c]", "recorded_result": 25.1}
{"molecule": "CCCc1nc(C)c2c(=O)[nH]c(-c3cc(S(=O)(=O)N4CCC([C@@H](O)CO)CC4)ccc3OCC)nn12 [Compound 25]", "recorded_result": 58.5}
{"molecule": "CCCc1nn(C)c2c(=O)[nH]c(-c3cc(S(=O)(=O)N4CCC([C@@H](O)CO)CC4)ccc3OCC)nc12 [Compound 4]", "recorded_result": 99.8}

Task: Report the value of Concentration (nM) for 3-fold or 2-fold* cGMP increase vs Baseline obtained on Human Trabecular Meshwork Cells for CCCc1nc(C)c2c(=O)[nH]c(-c3cc(S(=O)(=O)N4CCC([C@H](CO[N+](=O)[O-])O[N+](=O)[O-])CC4)ccc3OCC)nn12 [Compound 2a] .
Output: 4.2

====

System: Human Trabecular Meshwork Cells
experiment_summary: Cellular cGMP assay in human trabecular meshwork cells
Assay type: cell-based
test_conditions: HTMC, 10 μM Riociguat, 5 mM GSH, incubation 2 h
measured_quantity: Ratio Maximum cGMP increase vs Baseline
Answer as a number with no unit attached.

Some entries whose results are on file:
{"compound": "CCCc1nc(C)c2c(=O)[nH]c(-c3cc(S(=O)(=O)N4CCC([C@H](CO[N+](=O)[O-])O[N+](=O)[O-])CC4)ccc3OCC)nn12", "recorded_result": 101.7}
{"compound": "CCCc1nc(C)c2c(=O)[nH]c(-c3cc(S(=O)(=O)N4CCC(CC(C)(CO[N+](=O)[O-])CO[N+](=O)[O-])CC4)ccc3OCC)nn12", "recorded_result": 86.9}
{"compound": "CCCc1nc(C)c2c(=O)[nH]c(-c3cc(S(=O)(=O)N4CCC([C@@H](O)CO[N+](=O)[O-])CC4)ccc3OCC)nn12", "recorded_result": 52.1}
{"compound": "CCCc1nn(C)c2c(=O)[nH]c(-c3cc(S(=O)(=O)N4CCC([C@H](CO[N+](=O)[O-])O[N+](=O)[O-])CC4)ccc3OCC)nc12", "recorded_result": 55.7}
{"compound": "CCCc1nc(C)c2c(=O)[nH]c(-c3cc(S(=O)(=O)N4CCC(CC(C)(CO)CO[N+](=O)[O-])CC4)ccc3OCC)nn12 (stereo not drawn)", "recorded_result": 46.1}
{"compound": "CCCc1nn(C)c2c(=O)[nH]c(-c3cc(S(=O)(=O)N4CCC([C@@H](O)CO[N+](=O)[O-])CC4)ccc3OCC)nc12", "recorded_result": 61.9}

Task: Retrieve Ratio Maximum cGMP increase vs Baseline measured for CCCc1nn(C)c2c(=O)[nH]c(-c3cc(S(=O)(=O)N4CCC([C@@H](O)CO)CC4)ccc3OCC)nc12 and print it.
Output: 12.4

Task: Retrieve Ratio Maximum cGMP increase vs Baseline measured for CCCc1nc(C)c2c(=O)[nH]c(-c3cc(S(=O)(=O)N4CCC(C(O)(CCO)CCO[N+](=O)[O-])CC4)ccc3OCC)nn12 (stereo not drawn) and print it.
Output: 109.1

Task: Retrieve Ratio Maximum cGMP increase vs Baseline measured for CCCc1nc(C)c2c(=O)[nH]c(-c3cc(S(=O)(=O)N4CCC([C@@H](O)CO)CC4)ccc3OCC)nn12 and print it.
Output: 22.3

====

System: Rat aortic smooth muscle cells
experiment_summary: Cellular cGMP assay in rat aortic smooth muscle cells
Format: cell-based
test_conditions: 10 μM Riociguat
# Lookup of reported Concentration (nM) for 3-fold cGMP increase vs Baseline keyed by entry
Express the result in nM but write the number alone.

Some entries whose results are on file:
{"smiles_string": "CCCc1nn(C)c2c(=O)[nH]c(-c3cc(S(=O)(=O)N4CCC([C@@H](O)CO[N+](=O)[O-])CC4)ccc3OCC)nc12", "recorded_result": 1300}
{"smiles_string": "CCCc1nc(C)c2c(=O)[nH]c(-c3cc(S(=O)(=O)N4CCC([C@@H](O)CO[N+](=O)[O-])CC4)ccc3OCC)nn12", "recorded_result": 729}
{"smiles_string": "CCCc1nn(C)c2c(=O)[nH]c(-c3cc(S(=O)(=O)N4CCC([C@H](CO[N+](=O)[O-])O[N+](=O)[O-])CC4)ccc3OCC)nc12", "recorded_result": 222}

Turning to the following compound.
Task: Retrieve Concentration (nM) for 3-fold cGMP increase vs Baseline measured for CCCc1nc(C)c2c(=O)[nH]c(-c3cc(S(=O)(=O)N4CCC([C@H](CO[N+](=O)[O-])O[N+](=O)[O-])CC4)ccc3OCC)nn12 and print it.
Output: 293
